Test system: MDA-MB-435 melanoma
Experiment: NCI-60 one-dose screen, 48 h (100 = growth as untreated, 0 = no growth, -100 = all killed)
Conditions: 10 µM
Experimental: Growth inhibition of the MDA-MB-435 human Melanoma tumor cell line is measured as a screen for anti-cancer activity. Cells are grown in 96 well plates and exposed to the test compound for 48 hours. Compounds are tested at a single concentration, which is 10^-5 M for most compounds. The reported endpoint is percent growth (GI% or GIPRCNT), where numbers from 0 - 100% represent growth inhibition, and numbers from -100% - 0 represent cell death. […]
Compounds without any hit were thinned out: in the full panel of roughly 83,000, 20% have a hit. Active and inactive are the calls of the source. How the source made its calls: active means growth percent below 10; inactive means the rest.
measure: growth

INPUT: Provide one value: measured growth of FC(F)(F)c1ccc(-c2cnc(Cl)nc2NCc2cc(C(F)(F)F)cc(C(F)(F)F)c2)cc1
OUTPUT: 14.3% (inactive)

INPUT: Provide one value: measured growth of N=C(N)c1ccc(-c2ccc(-c3cccs3)s2)nc1
OUTPUT: 44.5% (inactive)

INPUT: Provide one value: measured growth of Nc1nc2c(nnn2C2CC(O)C(CO)O2)c(=O)[nH]1 (stereo not drawn)
OUTPUT: 41.1% (inactive)

---

Provide the recorded growth for the entries that follow.
test system: ACHN renal; assay: NCI-60 one-dose screen, 48 h (100 = growth as untreated, 0 = no growth, -100 = all killed); details: 10 µM
The panel holds about 83,000 compounds, 20% with a hit somewhere; the sample as a whole holds those more often. Activity calls are given as the source filed them. How the source made its calls: active means growth percent below 10; inactive means the rest.

INPUT: Provide one value: measured growth of S=c1c2ncccc2c(-c2ccccn2)nn1Cc1ccccn1
OUTPUT: 104% (inactive)

INPUT: Provide one value: measured growth of CC(C)c1ncc(CO)n1Cc1c(Cl)cccc1Cl
OUTPUT: 99.9% (inactive)

INPUT: Provide one value: measured growth of Cc1cc(C)c(/C=C2\C(=O)Nc3ccc(NC(=O)CCCCCCC(=O)NO)cc32)[nH]1
OUTPUT: 58.5% (inactive)

INPUT: Provide one value: measured growth of COCc1cc2c(cc1Br)OCO2
OUTPUT: 101% (inactive)

INPUT: Provide one value: measured growth of CCN(CC)CCCOC(=O)Nc1ccccc1Cl
OUTPUT: 108% (inactive)

INPUT: Provide one value: measured growth of NC(N)=NS(=O)(=O)c1ccc(Nc2ccc3nnc(-c4ccncc4)n3n2)cc1
OUTPUT: 101% (inactive)

INPUT: Provide one value: measured growth of CCSc1nc2c([nH]1)c(=O)n(C)c(=S)n2C
OUTPUT: 102% (inactive)

INPUT: Provide one value: measured growth of COC(=O)c1cnc2c(c1)Oc1ccc(Cl)cc1-c1cc(C)nn1-2
OUTPUT: 42.4% (inactive)

INPUT: Provide one value: measured growth of NC(=O)C12C(=O)NC(=O)C1(C(=O)O)C21CCCC1 (stereo unspecified)
OUTPUT: 112% (inactive)

INPUT: Provide one value: measured growth of CCc1ccc(-c2nnc(COc3ccc(-c4nc5ccccc5[nH]4)cc3OC)o2)cc1
OUTPUT: -13.9% (active)

INPUT: Provide one value: measured growth of COc1cc(-c2nc3cc(Cl)c(Cl)cc3[nH]2)ccc1OCC(=O)NN
OUTPUT: 72.6% (inactive)

---

tested on: UO-31 renal; assay: NCI-60 one-dose screen, 48 h (100 = growth as untreated, 0 = no growth, -100 = all killed); settings: 10 µM
About 83,000 compounds went through this panel and 20% of them were active in at least one assay; those are over-represented in the sample as a whole. Calls of active or inactive are those of the source. Rule for the calls: active = growth percent below 10; inactive = the rest.
measure: growth

INPUT: Provide one value: measured growth of S=C(Cc1ccc(-c2ccccc2)cc1)N1CCOCC1
OUTPUT: 83.9% (inactive)

INPUT: Provide one value: measured growth of COc1ccc(C2=Cc3ccc(OC(C)=O)cc3OC2)cc1
OUTPUT: 49.1% (inactive)

INPUT: Provide one value: measured growth of CCCN(CCC)CCCNC(=O)c1cc2c(-c3ccc(OC)c(OC)c3)nn(C)c2s1
OUTPUT: 6.68% (active)

INPUT: Provide one value: measured growth of Cc1nn2c(/C=C3/C(=O)Nc4ccc(Cl)cc43)c(-c3ccccc3)nc2s1
OUTPUT: 29.6% (inactive)

INPUT: Provide one value: measured growth of Cn1c([N+](=O)[O-])cnc1C=C1C(=O)c2ccccc2C1=O
OUTPUT: 20.7% (inactive)

INPUT: Provide one value: measured growth of COc1cc(OC)cc(-c2ccc(-c3ccc(C(=N)N)cn3)o2)c1
OUTPUT: -33.9% (active)

INPUT: Provide one value: measured growth of COC(=O)c1ccc(Cn2ccc(=O)[nH]c2=O)cc1
OUTPUT: 89.3% (inactive)

INPUT: Provide one value: measured growth of COc1cc(-c2nc3ccc(C)cc3[nH]2)ccc1OCc1nnc(-c2ccc(CC(C)C)cc2)o1
OUTPUT: 77.8% (inactive)

INPUT: Provide one value: measured growth of N=C(N)c1ccc(-c2ccc(-c3ccccc3)s2)s1
OUTPUT: -74.1% (active)

INPUT: Provide one value: measured growth of O=C1/C(=C/c2ccc([N+](=O)[O-])s2)Oc2ccc(Cl)cc21
OUTPUT: -89.4% (active)

INPUT: Provide one value: measured growth of CCCCCCCCCCSC(=N)N (tested in a mixture with another compound)
OUTPUT: 64.4% (inactive)

INPUT: Provide one value: measured growth of COc1ccc(C2=NNC(c3sc(Cl)nc3Cl)C2)cc1 (centres undefined)
OUTPUT: 85.3% (inactive)

INPUT: Provide one value: measured growth of CCn1nc(-c2ccc(C(=O)OC)cc2)nc2c(=O)n(C)c(=O)nc1-2
OUTPUT: 49.9% (inactive)

INPUT: Provide one value: measured growth of O=C1/C(=C/c2ccc(O)cc2)CSc2ccc(Cl)cc21
OUTPUT: 73.1% (inactive)

INPUT: Provide one value: measured growth of CCCc1c(C)nc2scc(-c3ccc(Cl)cc3)n2c1=O
OUTPUT: 73% (inactive)

INPUT: Provide one value: measured growth of COc1cccc2c1C(=O)c1c(O)c3c(c(O)c1C2=O)C[C@@](O)(C(=O)COC(=O)c1cccnc1)C[C@@H]3OC1CC(N)C(O)C(C)O1 (some centres undefined)
OUTPUT: -40.4% (active)

INPUT: Provide one value: measured growth of OC(CNC1CCCC1)Cn1c2ccccc2c2ccccc21 (centres undefined)
OUTPUT: 12.3% (inactive)

INPUT: Provide one value: measured growth of COc1ccc(-c2oncc2-c2cc(OC)c3c(c2)OCO3)cc1
OUTPUT: 39.8% (inactive)

INPUT: Provide one value: measured growth of CCCCn1c(=O)[nH]c2c(c1=O)C(c1ccc(Cl)cc1)c1c([nH]c(=O)n(CCCC)c1=O)N2
OUTPUT: 94.9% (inactive)

INPUT: Provide one value: measured growth of c1ccc(OCCC[P+](c2ccccc2)(c2ccccc2)c2ccccc2)cc1
OUTPUT: 63.8% (inactive)

INPUT: Provide one value: measured growth of COCCOC(=O)NC(=O)Nc1ccc(/C(=N/O)c2ccc(Cl)cc2)cc1
OUTPUT: 36.8% (inactive)

INPUT: Provide one value: measured growth of Cc1ccc(Cl)cc1Nc1nc(C(F)(F)F)ccc1C(=O)N/N=C/c1c(Cl)cccc1Cl
OUTPUT: -23.3% (active)

INPUT: Provide one value: measured growth of Nc1ncncc1-c1ccc(F)cc1
OUTPUT: 103% (inactive)

INPUT: Provide one value: measured growth of O=c1ccc2nc(-c3ccccc3)nn(-c3ccccc3)c-2c1
OUTPUT: -97.5% (active)

---

Provide the recorded growth for the entries that follow.
tested on: ACHN renal; test: NCI-60 one-dose screen, 48 h (100 = growth as untreated, 0 = no growth, -100 = all killed); conditions: 10 µM
The panel holds about 83,000 compounds, 20% with a hit somewhere; the sample as a whole holds those more often.
Give a bare numeral; the unit % is implied.

INPUT: Fill in: growth on ACHN renal, entry O=C1/C(=C/c2ccc(O)cc2O)N=C2SCCCN12
OUTPUT: 97.6

INPUT: Fill in: growth on ACHN renal, entry COc1ccc(-c2cc(/C=C/C(=O)c3ccc(N)cc3)[nH]n2)cc1OC
OUTPUT: 50.5

INPUT: Fill in: growth on ACHN renal, entry CCOC(=O)Cn1nnc(-c2ccc(OCc3ccccc3F)cc2)n1
OUTPUT: 84.6

INPUT: Fill in: growth on ACHN renal, entry N#Cc1ccc(-n2cnc(NC(=O)[C@H]3CCN(C#N)C3)c2)cc1
OUTPUT: 11.8

INPUT: Fill in: growth on ACHN renal, entry COc1ccc(-c2ccccc2)cc1C(=O)c1ccc(-c2ccccc2)cc1
OUTPUT: 105

INPUT: Fill in: growth on ACHN renal, entry O=C(CSc1nnc(-c2ccc(Cl)cc2)o1)c1ccccc1
OUTPUT: 101

INPUT: Fill in: growth on ACHN renal, entry Cc1cn(C(=O)/C(Cl)=C(/Cl)C(=O)O)c2ccccc12
OUTPUT: 97.8
